Biological target: human blood platelet PDE5 (Homo sapiens, UniProt O76074)
Construct: obtained by suitably treating various tissues and separating the enzyme with FPLC; from tissue; host or cells: human blood platelets
Assay: PDE5 enzyme inhibition activity test (scintillation proximity)
Type: biochemical
Conditions: as repeated in the PDE6 table
VALUE_TYPE: pIC50
Reminder that pIC50 is minus the log10 of a molar concentration.

CCCOc1ccc(C(=O)NC(Cc2ccc(O)cc2)C(=O)OC)cc1-c1nc(CC)c(CC)c(=O)[nH]1 (stereo not drawn) :: 9.24
CCCOc1ccc(S(=O)(=O)NCCS(=O)(=O)O)cc1-c1nc(CC)c(CC)c(=O)[nH]1 :: 9.72

Moving on to another compound below.
// pIC50 lookup, key: CCCOc1ccc(C(=O)NC(Cc2ccccc2)C(=O)OC)cc1-c1nc(CC)c(CC)c(=O)[nH]1 (stereo not drawn) 9.28
